Assay: Toxicity liver stage against HepG2, at 10uM
Format: cell-based
Parameters: test concentration 10 uM, cell line HepG2-A16-CD81EGFP
Conditions: human, HepG2-A16-CD81EGFP cells; read-out: INHIBITION
OUTCOME MEASURE: cytotoxicity at 10 µM (%)
Answers are plain numbers, in %.

In the examples that follow, each entry is paired with its recorded cytotoxicity at 10 µM.
CC(=O)N(Cc1noc(C2CC2)n1)C1CCN(CC2CCOCC2)C1 (stereo unspecified): 1.29
O=C1CC2(CCN(Cc3cccnc3)C2)CN1c1ccc2c(c1)OCO2 (stereo unspecified): -70.2
CCN1CC(C(=O)NCCn2cccc2)CC1=O (stereo unspecified): -4.72
Cc1noc(C)c1S(=O)(=O)N1CCc2nc(C3CCNCC3)ncc2C1: -22.9

// batch mode: one cytotoxicity at 10 µM value per listed entry
1. CN1CCN(C(=O)c2cc3sccc3n2Cc2ccccc2)CC1
2. CNC(=O)N1CC[C@@H]2CN(CCc3cccc(OC)c3)S(=O)(=O)[C@@H]2CC1

[4.38, -1.46]

###

Test: Toxicity liver stage against HepG2, at 10uM
Format: cell-based
Set-up: test concentration 10 uM, cell line HepG2-A16-CD81EGFP
Settings: human, HepG2-A16-CD81EGFP cells; read-out: INHIBITION
For each record, write down the corresponding cytotoxicity at 10 µM.
One number for each entry, in %.

CCCN(C(=O)c1cnccn1)c1nc2c(s1)CCc1c-2cnn1C: -16.7
COCCC1(CNC(=O)Nc2ccc(-n3ccnn3)cc2)CCC1: -0.677
CN(C)C(=O)CO[C@H]1CN(Cc2ccsc2)[C@@H]2COC[C@H]12: 8.44
CN(C)c1nc2c(c(N3CCCC3)n1)CCN(C(=O)c1ccc[nH]1)CC2: 7.81
c1cncc(OC2CCN(CCn3cc4ccccc4n3)CC2)c1: 1.48

Hello, I would appreciate it if you could give cytotoxicity at 10 µM for each entry below.
1. CCn1ccnc1CN1CCCC(CO)(Cc2cccc(OC)c2)C1 (stereo unspecified)
2. CCN(c1ccc(C(=O)NCc2cc[nH]n2)cc1)C(C)C
3. CS(=O)(=O)NC(=O)CCc1cccc(OC2CCCC2)c1
4. CCOC(=O)N1CCN(C(=O)c2sc(-c3ccc(F)cc3)nc2C)CC1
5. Cc1ccc(NC(C(N)=O)c2ccc(F)cc2)cc1 (stereo unspecified)
6. COc1ccc(-c2noc(CCC(=O)N3CCOCC3(C)C)n2)cc1

3.25
11.9
-5.01
10.7
9.19
6.99

###

Test: Toxicity liver stage against HepG2, at 10uM
Type: cell-based
Design: test concentration 10 uM, cell line HepG2-A16-CD81EGFP
Conditions: human, HepG2-A16-CD81EGFP cells; read-out: INHIBITION
OUTCOME MEASURE: cytotoxicity at 10 µM (%)
Numbers only, in %.

Would you please look over these solved cases?
O=C(Cc1csc(N2CCNC2=O)n1)NCC1(c2ccccc2)CC1: -123
CCc1nc(NS(=O)(=O)c2ccc(F)cc2Cl)no1: 0.528
Cc1cccc(C)c1OCCCN1CCC(n2cncn2)CC1: -24.3
CC(=O)N1CCc2nc(N3CCCC3)nc(C)c2C1: -0.567
N#Cc1cc(N2CCC(CS(N)(=O)=O)CC2)c2ccccc2n1: -11.4

Moving on to the next compound.
Consider the compound `CCOC(=O)Cc1csc(NC(=O)c2cc(=O)c(OC)c[nH]2)n1` and give its recorded cytotoxicity at 10 µM.
-43.8
